# Tested on: Pseudomonas aeruginosa
# ASSAY SUMMARY: In vitro inhibition of Pseudomonas aeruginosa 18SH growth.
# Assay type: functional
OBSERVED PROPERTY: MIC (µg/mL)
Enter your answer as a number in µg/mL; do not include the unit.

- MOL SMILES: "Cc1nn(C)c(SCC(=O)N2CC[C@@H]3[C@H]2C(=O)N3S(=O)(=O)[O-])nc1=O.[Na+]"
  UNITS LABEL: "µg/mL"
  MIC: 16
- MOL SMILES: "NC(=O)Nc1ccc(NC(=O)N2CC[C@@H]3[C@H]2C(=O)N3S(=O)(=O)[O-])cc1.[Na+]"
  UNITS LABEL: "µg/mL"
  MIC: 4
- MOL SMILES: "Cn1ccnc1SCC(=O)N1CC[C@@H]2[C@H]1C(=O)N2S(=O)(=O)[O-].[Na+]"
  UNITS LABEL: "µg/mL"
  MIC: 8

From here, focus on the item given below.
Which MIC value belongs to Cn1nnnc1SCC(=O)N1CC[C@@H]2[C@H]1C(=O)N2S(=O)(=O)[O-].[Na+] ?
8

* * *

The following molecules are shown together with reported Ratio values.
# ASSAY SUMMARY: Relative permeability as IC50 for beta lactamase inhibition in intact Citrobacter freundii growing cells to the observed IC50 in the same cells treated with 0.7% final concentration of octyl-poly(oxyethylene)
# Assay type: functional
Please give the numeric answer without any surrounding text.

Worked cases, answers included:
- MOLECULE: "[NH-]C(=O)c1ccc[n+](CC(=O)N2CC[C@@H]3[C@H]2C(=O)N3S(=O)(=O)[O-])c1.[Na+]"
  Ratio: 0.8
- MOLECULE: "O=C(Nc1ccc(O)cc1)N1CC[C@@H]2[C@H]1C(=O)N2S(=O)(=O)[O-].[Na+]"
  Ratio: 0.6
- MOLECULE: "Cn1nnnc1S[C@@H]1CN(C(=O)OCc2ccccc2)[C@@H]2C(=O)N(S(=O)(=O)[O-])[C@@H]21.[Na+]"
  Ratio: 10

Which Ratio value belongs to NC(C(=O)N1CC[C@@H]2[C@H]1C(=O)N2S(=O)(=O)[O-])c1ccc(O)cc1.[Na+] (stereo not given in full) ?
8.7

Next molecule up: O=C(NC1CCNCC1)N1CC[C@@H]2[C@H]1C(=O)N2S(=O)(=O)[O-].[Na+]
1.7

* * *

# EXPERIMENTAL SYSTEM: Beta-lactamase (Pseudomonas aeruginosa (strain ATCC 15692 / PAO1 / 1C / PRS 101 / LMG12228))
OBSERVED PROPERTY: log10(Ks) (log10 of the value in µM)
// do not treat as linear: log10 of Ks, unit µM

Worked cases, answers included:
- COMPOUND: "CC(C)(C)OC(=O)N1CC[C@@H]2[C@H]1C(=O)N2S(=O)(=O)[O-].[Na+]"
  log10(Ks): 2.10
- COMPOUND: "[NH-]C(=O)c1ccc[n+](CC(=O)N2CC[C@@H]3[C@H]2C(=O)N3S(=O)(=O)[O-])c1.[Na+]"
  log10(Ks): 1.81
- COMPOUND: "CC(C)(C)OC(=O)N1CCC[C@@H]2[C@H]1C(=O)N2S(=O)(=O)[O-].[Na+]"
  log10(Ks): 3.54
- COMPOUND: "Cn1nnnc1S[C@@H]1CN(C(=O)OCc2ccccc2)[C@@H]2C(=O)N(S(=O)(=O)[O-])[C@@H]21.[Na+]"
  log10(Ks): 1.18
- COMPOUND: "O=C(Nc1ccc(O)cc1)N1CC[C@@H]2[C@H]1C(=O)N2S(=O)(=O)[O-].[Na+]"
  log10(Ks): 1.70
- COMPOUND: "NC(C(=O)N1CC[C@@H]2[C@H]1C(=O)N2S(=O)(=O)[O-])c1ccc(O)cc1.[Na+] (some centres not stated)"
  log10(Ks): 0.84

From here, focus on the item given below.
Which log10(Ks) value belongs to O=C(NC1CCNCC1)N1CC[C@@H]2[C@H]1C(=O)N2S(=O)(=O)[O-].[Na+] ?
3.17
